Target: human TRPA1 (Homo sapiens (Human))
Sequence (O75762 whole entry): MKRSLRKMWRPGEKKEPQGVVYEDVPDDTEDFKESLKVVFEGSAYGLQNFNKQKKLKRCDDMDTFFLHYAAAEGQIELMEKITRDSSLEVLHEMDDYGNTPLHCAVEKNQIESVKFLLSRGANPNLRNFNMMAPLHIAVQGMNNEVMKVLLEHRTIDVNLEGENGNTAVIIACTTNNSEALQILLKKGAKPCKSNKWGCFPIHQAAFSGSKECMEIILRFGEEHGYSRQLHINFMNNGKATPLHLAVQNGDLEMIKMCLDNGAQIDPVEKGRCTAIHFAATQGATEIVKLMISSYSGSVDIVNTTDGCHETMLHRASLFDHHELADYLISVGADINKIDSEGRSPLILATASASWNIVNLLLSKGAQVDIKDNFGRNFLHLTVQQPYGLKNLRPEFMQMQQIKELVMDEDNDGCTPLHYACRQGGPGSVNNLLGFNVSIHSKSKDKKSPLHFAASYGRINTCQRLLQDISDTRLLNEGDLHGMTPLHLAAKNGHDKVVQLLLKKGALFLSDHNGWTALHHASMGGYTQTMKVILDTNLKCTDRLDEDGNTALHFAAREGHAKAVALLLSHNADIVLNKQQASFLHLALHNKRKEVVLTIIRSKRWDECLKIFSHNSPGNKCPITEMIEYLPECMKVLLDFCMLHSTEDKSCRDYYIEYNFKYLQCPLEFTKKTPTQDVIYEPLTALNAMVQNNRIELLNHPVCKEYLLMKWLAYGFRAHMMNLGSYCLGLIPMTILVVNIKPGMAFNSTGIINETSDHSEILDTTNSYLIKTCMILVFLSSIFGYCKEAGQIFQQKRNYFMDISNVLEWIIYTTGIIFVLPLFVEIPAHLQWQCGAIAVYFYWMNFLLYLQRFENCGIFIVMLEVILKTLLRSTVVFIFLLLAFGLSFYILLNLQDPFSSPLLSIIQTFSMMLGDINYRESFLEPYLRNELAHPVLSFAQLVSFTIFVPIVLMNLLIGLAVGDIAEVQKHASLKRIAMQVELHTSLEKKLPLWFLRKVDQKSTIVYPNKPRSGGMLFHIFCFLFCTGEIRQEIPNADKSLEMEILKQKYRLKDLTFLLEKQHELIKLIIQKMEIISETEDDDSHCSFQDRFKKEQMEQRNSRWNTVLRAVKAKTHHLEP
Assay: Measurement of TRPA1 antagonist activity (2): as (1), different lot of human TRPA1 expression plasmid
Type: cell-based
Conditions: 293T cells transfected with human TRPA1, allylisothiocyanate 20 μM stimulation, calcium fluorescence, read-out: hTRPA1 IC50
Measured Endpoint: IC50
Answer shape: numeric part, then the unit.

Each compound below has a recorded value; state its IC50.
1. C[C@H](NS(=O)(=O)c1cc2cc(F)ccc2o1)C(=O)NCc1cc(-c2ccc(C(F)(F)F)nc2)nc(N(C)C)n1
2. O=C(NCc1cc(-c2ccc(C(F)(F)F)nc2)ncn1)[C@@H]1CCN1S(=O)(=O)c1cc2ccccc2o1

Solution:
1: 27 nM; 2: 16 nM

Each compound below has a recorded value; state its IC50.
1. O=C(NCc1cc(-c2ncc(C(F)(F)F)cn2)ccn1)[C@@H]1CCN1S(=O)(=O)c1cc2cc(F)ccc2o1
2. C[C@H](NS(=O)(=O)c1cc2cc(F)ccc2o1)C(=O)NCc1cc(-c2ccc(C(F)(F)F)cc2O)nc(N(C)C)n1

Solution:
1: 11 nM; 2: 110 nM
